PROTOCOL DETAILS: Kinetic assay of purified DAOCS with penicillin G (standard penicillin G assay, HPLC of cephalosporin G)
Type: biochemical
CONDITION: for penicillin G; 20 μg purified DAOCS, 1 mM α-ketoglutarate, 30° C.
Reported kcat values are given for each entry in this list.

MOLECULE	kcat (S^−1)
YS5: mutated penicillin expandase (DAOCS) with substitution V275I (protein, UniProt P18548 1-311, looked up, variant V275I) Deacetoxycephalosporin C …: MDTTVPTFSLAELQQGLHQDEFRRCLRDKGLFYLTDCGLTDTELKSAKDLVIDFFEHGSEAEKRAVTSPVPTMRRGFTGLESESTAQITNTGSYSDYSMCYSMGTADNLFPSGDFERIWTQYFDRQYTASRAVAREVLRATGTEPDGGVEAFLDCEPLLRFRYFPQVPEHRSAEEQPLRMAPHYDLSMVTLIQQTPCANGFVSLQAEVGGAFTDLPYRPDAVLVFCGAIATLVTGGQVKAPRHHVAAPRRDQIAGSSRTSSVFFLRPNADFTFSIPLARECGFDVSLDGETATFQDWIGGNYVNIRRTSKA	0.0502
YS125: mutated DAOCS with substitution N304L as disclosed in Chin H. S. et al (protein, UniProt P18548 1-311, looked up, variant N304L) Deacetoxycephalosporin C …: MDTTVPTFSLAELQQGLHQDEFRRCLRDKGLFYLTDCGLTDTELKSAKDLVIDFFEHGSEAEKRAVTSPVPTMRRGFTGLESESTAQITNTGSYSDYSMCYSMGTADNLFPSGDFERIWTQYFDRQYTASRAVAREVLRATGTEPDGGVEAFLDCEPLLRFRYFPQVPEHRSAEEQPLRMAPHYDLSMVTLIQQTPCANGFVSLQAEVGGAFTDLPYRPDAVLVFCGAIATLVTGGQVKAPRHHVAAPRRDQIAGSSRTSSVFFLRPNADFTFSVPLARECGFDVSLDGETATFQDWIGGNYVLIRRTSKA	0.0402
